assay: cell viability, MTT colorimetric assay; assay type: cell-based; settings: mouse
quantity-measured: viability at 72 h, 200 µM (%)
Supply the numeric figure in %, leaving out any unit text.

Could you tell me which viability at 72 h, 200 µM is on file for CC(C(O)CCC(C)(C)O)[C@H]1CC[C@@]2(C)C3=C(CC[C@]12C)[C@@]1(C)CC[C@H](O)C(C)(C)[C@@H]1CC3 (stereo partly drawn) [Fd-a, 3β,22,25-trihydroxy-lanosta-8-ene] ?
97.1

###

target: tyrosinase in B16 melanoma cells (Mus musculus, UniProt P11344); construct: Each well of a 96-well plate contained 40 μg of lysate protein; endogenous in cells; assay: kinetic analysis of tyrosinase activity inhibition, B16 lysate protein, L-DOPA substrate, Lineweaver-Burk plot
Sequence (P11344 19-533): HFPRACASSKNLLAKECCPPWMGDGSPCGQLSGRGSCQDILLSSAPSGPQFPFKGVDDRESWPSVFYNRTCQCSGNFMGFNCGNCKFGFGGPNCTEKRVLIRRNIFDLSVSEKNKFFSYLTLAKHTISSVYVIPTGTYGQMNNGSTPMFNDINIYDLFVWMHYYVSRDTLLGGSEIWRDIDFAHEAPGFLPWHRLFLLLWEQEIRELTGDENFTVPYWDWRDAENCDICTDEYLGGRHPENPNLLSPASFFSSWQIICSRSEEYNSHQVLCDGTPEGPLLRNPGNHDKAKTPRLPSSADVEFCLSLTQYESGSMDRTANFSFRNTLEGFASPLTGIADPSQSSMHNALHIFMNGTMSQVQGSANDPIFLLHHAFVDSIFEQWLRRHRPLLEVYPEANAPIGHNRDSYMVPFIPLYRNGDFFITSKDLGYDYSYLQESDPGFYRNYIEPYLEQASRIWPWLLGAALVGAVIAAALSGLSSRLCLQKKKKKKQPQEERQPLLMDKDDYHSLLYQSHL
Measured IC50, listed per entry for reference.
Please respond with the number in µM and leave the unit unwritten.

| smiles-string | units-text | IC50 |
| --- | --- | --- |
| C=C(C)[C@@H]1CC[C@]2(CO)CC[C@]3(C)[C@H](CC[C@@H]4[C@@]5(C)CC[C@H](O)C(C)(C)[C@@H]5CC[C@]43C)[C@@H]12 | µM | 5.13 |

// switching to the query compound
If you can, please state the reported IC50 value of CC(C)=CCC[C@@H](C(=O)O)[C@H]1CC[C@@]2(C)C3=C(CC[C@]12C)[C@@]1(C)CC[C@H](O)C(C)(C)[C@@H]1CC3 .
7.25

###

Listing: viability at 72 h, 100 µM of selected compounds
test: cell viability, MTT colorimetric assay; format: cell-based; conditions: mouse; 100 μM, 72 h, percentage of controls (mean ± SD); read-out: Cell viability
Give the quantity in %, number only.

viability at 72 h, 100 µM lookup needed for C=C(C)[C@@H]1CC[C@]2(CO)CC[C@]3(C)[C@H](CC[C@@H]4[C@@]5(C)CC[C@H](O)C(C)(C)[C@@H]5CC[C@]43C)[C@@H]12 [Fa-a, betulin] , thanks.
88.3

Value lookup for viability at 72 h, 100 µM; key = CC(C)=CCC[C@@H](C(=O)O)[C@H]1CC[C@@]2(C)C3=C(CC[C@]12C)[C@@]1(C)CC[C@H](O)C(C)(C)[C@@H]1CC3 [Fa-b, trametenolic acid]
96.5

###

assay: cell viability, MTT colorimetric assay; type: cell-based; conditions: mouse, B16 melanoma cells; 200 μM, 72 h, percentage of controls (mean ± SD); read-out: Cell viability
// reported viability at 72 h, 200 µM for each item listed
Entry format: amount then unit.

Consider the following illustrative entries.
| molecule | viability at 72 h, 200 µM |
| --- | --- |
| O=c1cc(CO)occ1O [kojic acid, Kojic acid, reference compound] | 86.1% |
| CC(C)=CCC[C@@H](C)[C@H]1CC[C@@]2(C)C3=C(CC[C@]12C)[C@@]1(C)CC[C@H](O)C(C)(C)[C@@H]1CC3 | 96.3% |
| O=C(O)c1cccnc1 | 45.3% |

Next:
For the molecule CC(C)=CC[C@@H](O)[C@@H](C)[C@H]1CC[C@@]2(C)C3=C(CC[C@]12C)[C@@]1(C)CC[C@H](O)C(C)(C)[C@@H]1CC3 , what viability at 72 h, 200 µM is on record?
99.4%

###

assay: cell viability, MTT colorimetric assay; assay type: cell-based; details: mouse, B16 melanoma cells; 100 μM, 72 h, percentage of controls (mean ± SD); read-out: Cell viability
quantity-measured: viability at 72 h, 100 µM (%)
A number alone suffices; assume %.

| molecule | experimental-value |
| --- | --- |
| O=c1cc(CO)occ1O [kojic acid, Kojic acid, reference compound] | 92.4 |
| CC(C)=CCC[C@@H](C)[C@H]1CC[C@@]2(C)C3=C(CC[C@]12C)[C@@]1(C)CC[C@H](O)C(C)(C)[C@@H]1CC3 [Fb-b, lanoserol] | 100 |
| CC(C)=CC[C@@H](O)[C@@H](C)[C@H]1CC[C@@]2(C)C3=C(CC[C@]12C)[C@@]1(C)CC[C@H](O)C(C)(C)[C@@H]1CC3 [Fb-a, inotodiol] | 99.3 |

Next molecule, please.
Bench note: what viability at 72 h, 100 µM did O=C(O)c1cccnc1 [Fc-a, nicotinie acid] show?
73.5

###

assay: cell viability, MTT colorimetric assay; assay type: cell-based; settings: mouse
quantity-measured: viability at 72 h, 100 µM (%)
# value in %; strip the unit string

Need viability at 72 h, 100 µM, item CC(C(O)CCC(C)(C)O)[C@H]1CC[C@@]2(C)C3=C(CC[C@]12C)[C@@]1(C)CC[C@H](O)C(C)(C)[C@@H]1CC3 (stereo partly drawn) [Fd-a, 3β,22,25-trihydroxy-lanosta-8-ene]
96.7

###

tested on: B16 melanoma cells; experiment: cell apoptosis rate, AnnexinV-FITC flow cytometry; assay type: cell-based; settings: 100 μM, 72 h, control set as 0% (mean ± SD)
quantity-measured: Apoptosis rate (%)
Entry rule: numbers only, all in %.

Check out these entries, answers already filled in.
| compound | experimental-value |
| --- | --- |
| CC(C)=CC[C@@H](O)[C@@H](C)[C@H]1CC[C@@]2(C)C3=C(CC[C@]12C)[C@@]1(C)CC[C@H](O)C(C)(C)[C@@H]1CC3 [Fb-a, inotodiol] | 3.91 |
| C=C(C)[C@@H]1CC[C@]2(CO)CC[C@]3(C)[C@H](CC[C@@H]4[C@@]5(C)CC[C@H](O)C(C)(C)[C@@H]5CC[C@]43C)[C@@H]12 [Fa-a, betulin] | 9.01 |
| CC(C)=CCC[C@@H](C(=O)O)[C@H]1CC[C@@]2(C)C3=C(CC[C@]12C)[C@@]1(C)CC[C@H](O)C(C)(C)[C@@H]1CC3 [Fa-b, trametenolic acid] | 5.11 |

Next:
Consider the compound shown here: O=c1cc(CO)occ1O [kojic acid, Kojic acid, reference compound] What is its recorded Apoptosis rate?
9.45
